Target: human Claudin18.2 (human)
Assay: cell-based or functional assay
Listing: CDC EC50 of selected binders
The figure you give is taken to be in µg/mL; do not add the unit.

Worked examples, 2 binders total:
Binder	Value measured
243B4F7 (antibody, V domains shown) VH: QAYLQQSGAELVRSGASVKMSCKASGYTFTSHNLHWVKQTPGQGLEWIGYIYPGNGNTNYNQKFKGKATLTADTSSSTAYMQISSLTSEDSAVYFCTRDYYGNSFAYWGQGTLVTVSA VL: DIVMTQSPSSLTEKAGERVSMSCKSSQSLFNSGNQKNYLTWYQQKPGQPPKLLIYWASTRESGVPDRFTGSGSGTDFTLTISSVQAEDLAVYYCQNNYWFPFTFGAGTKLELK	0.941
405G8F11 (antibody, V domains shown) VH: DVQLVESGGGLVQPGGSRKLSCVTSGFTFSSFGMHWVRQAPEKGLEWVAYISSGSSPIYYADTVKGRFTISRDNPKNTLFLQMSSLRSEDTAMYFCARFYYGNSFAYWGQGTLVTVSA VL: DIVMTQSPSSLTVTAGEKVTMNCKSSQSLLNSGNQKNYLTWYQQKLGQPPKLLMYWASTRESGVPDRFTGSGSGTDFTLTISSVQAEDLAVYFCQSAFSYPLTFGAGTKLELK	3220

Read the next record carefully.
Sample 239H12G9 (antibody, V domains shown) VH: QAYLQQSGAELVRSGASVKMSCKASGYTFTSHNIHWVKQTPGQGLEWIGYIYPGNGAPNYNQKFRGKATLTADTSSSTAYMQISSLTSEDSAVYFCARDYYGNSFVYWGQGTLVTVSA VL: DIVMTQSPSSLTEKAGEKVSMSCKSSQSLLNSGNQKNYLTWYQQKPGQPPKLLIYWASTRESGVPDRFTGSGSGTDFTLTISSVQAEDLAVYYCQNDYRYPFTFGAGTKLELK ; CDC EC50 observed: 1.36

The measurements presented in this section are drawn from patent US20220073643A1.
